Readings of IC50 for the listed compounds
- tgt: KRAS G12D (Homo sapiens, UniProt P01116, G12D)
- Sequence (P01116 with tags, fused parts or gaps isoform P01116-2 G12D): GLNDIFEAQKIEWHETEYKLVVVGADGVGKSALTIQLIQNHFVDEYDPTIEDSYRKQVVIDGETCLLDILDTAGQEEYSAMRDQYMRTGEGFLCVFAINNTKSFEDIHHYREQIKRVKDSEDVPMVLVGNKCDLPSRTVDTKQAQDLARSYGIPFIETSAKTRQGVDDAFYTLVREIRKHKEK
- assay.comment: SOS-catalyzed nucleotide exchange assay, KRAS G12D (Procedure A)
- Type: biochemical
- experimental.setup: guanine nucleotide exchange (GNE)

compound	IC50 [nM]
F[C@H]1CN2CCC[C@@]2(COc2nc(N3C[C@H]4CC[C@@H](C3)N4)c3c(n2)sc2c(-c4c(C5CC5)c(Cl)cc5[nH]ncc45)nccc23)C1	8.05
Fc1ccc2cc3[nH]ncc3c(-c3nccc4c3sc3nc(OC[C@@]56CCCN5C[C@H](F)C6)nc(N5C[C@H]6CC[C@@H](C5)N6)c34)c2c1Cl	9.25
C#Cc1c(F)ccc2cc3[nH]ncc3c(-c3nccc4c3sc3nc(OC[C@]5(CN6CCC7(CCCCC7)CC6)CC5(F)F)nc(N5C[C@H]6CC[C@@H](C5)N6)c34)c12	8.52
Cc1cc2[nH]ncc2c(-c2nccc3c2sc2nc(OCCC4CCS(=O)(=O)CC4)nc(N4C[C@H]5CC[C@@H](C4)N5)c23)c1C(F)(F)F	4640
C#Cc1cccc2cccc(-c3nccc4c5c(N6C[C@H]7CC[C@@H](C6)N7)nc(OC[C@@]67CCCN6C[C@H](F)C7)nc5n(C)c34)c12	40.7
Cc1cc2[nH]ncc2c(-c2nccc3c2sc2nc(OC[C@@]45CCCN4C[C@H](F)C5)nc(N4C[C@@H]5CC[C@H]4CN5)c23)c1C(F)(F)F	38.1
Cc1cc2[nH]ncc2c(-c2nccc3c2sc2nc(OC[C@]4(CO)CC4(F)F)nc(N4C[C@H]5CC[C@@H](C4)N5)c23)c1OC(F)F	2150
Cc1cc2[nH]ncc2c(-c2nccc3c2sc2nc(OC[C@@]45CCCN4C[C@H](F)C5)nc(N4CC5COCC(C4)N5)c23)c1C(F)(F)F	128
Cc1cc2[nH]ncc2c(-c2nccc3c2sc2nc(OCC4(C#N)CCOC4)nc(N4C[C@H]5CC[C@@H](C4)N5)c23)c1C(F)(F)F (stereo partly drawn)	1460
Cc1cc2[nH]ncc2c(-c2nccc3c2sc2nc(OC[C@@]45CCCN4C[C@H](F)C5)nc(NCC4(N(C)C)CCC4)c23)c1C(F)(F)F	1300
F[C@H]1CN2CCC[C@@]2(COc2nc(N3C[C@H]4CC[C@@H](C3)N4)c3c(n2)sc2c(-c4c(C5(F)CC5)c(C(F)(F)F)cc5[nH]ncc45)nccc23)C1	12.3
C#Cc1c(F)ccc2cc3[nH]ncc3c(-c3nccc4c3sc3nc(OC[C@]5(CN6CCC7(CC6)CC(Cc6cn(C)nn6)C7)CC5(F)F)nc(N5C[C@H]6CC[C@@H](C5)N6)c34)c12	2.03
